# Tested on: Candida albicans
# Protocol text: Antifungal activity against Candida albicans after 48 to 72 hrs
# Format: functional
# Stated conditions: Candida albicans

- Smiles repr: "CCCCCc1cc[n+](CCCCCCCCCCCC[n+]2ccc(CCCCC)c(C)c2)cc1C.[Cl-].[Cl-]"
  MFC, µg/mL: 0.79
- Smiles repr: "CCCCCCc1cc[n+](CCCCCCCCCCCC[n+]2ccc(CCCCCC)cc2)cc1.[Cl-].[Cl-]"
  MFC, µg/mL: 1.56
- Smiles repr: "CCCCCc1cc[n+](CCCCCCCCCCCC[n+]2ccc(CCCCC)cc2)cc1.[Cl-].[Cl-]"
  MFC, µg/mL: 0.75
- Smiles repr: "C=CCCCc1cc[n+](CCCCCCCCCCCC[n+]2ccc(CCCC=C)cc2)cc1.[Cl-].[Cl-]"
  MFC, µg/mL: 0.75

Taken from ChEMBL document CHEMBL1629527.
